Target: rhTDO (recombinant human TDO) (Homo sapiens)
Experiment: Enzyme assay using rhTDO (rate of kynurenine production)
Format: biochemical
Settings: 2 h; final concentration of the compound 10 μM; rate relative to reaction without compound; read-out: rhTDO-mediated kynurenine production
Where a name gives a salt, the structure may show the parent alone.
property measured: remaining activity at 10 µM (%)
Note: unit % is implicit; provide only the numeric part.

compound: N#Cc1ccc(CNC(=O)Cc2ccccc2CSC(=N)N)cc1 [Compound 67, hydrobromide]
tested system: rhTDO (recombinant human TDO) (Homo sapiens)
unit annotation: %
remaining activity at 10 µM: 46

Measured remaining activity at 10 µM of Clc1ccc(CCN2CN=C(SCc3cc(Cl)c(Cl)cc3CSC3=NCN(CCc4ccc(Cl)c(Cl)c4)CN3)NC2)cc1Cl [Compound 38] : 37

Measured remaining activity at 10 µM of c1csc(CCN2CN=C(SCc3ccccc3CSC3=NCN(CCc4cccs4)CN3)NC2)c1 [Compound 40] : 29

###

Here, each record is paired with measured remaining activity at 10 µM data.
Target: TDO in A172 cells (Homo sapiens, UniProt P48775)
Construct: endogenous in cells; host or cells: A172 cells
Sequence (P48775 whole entry): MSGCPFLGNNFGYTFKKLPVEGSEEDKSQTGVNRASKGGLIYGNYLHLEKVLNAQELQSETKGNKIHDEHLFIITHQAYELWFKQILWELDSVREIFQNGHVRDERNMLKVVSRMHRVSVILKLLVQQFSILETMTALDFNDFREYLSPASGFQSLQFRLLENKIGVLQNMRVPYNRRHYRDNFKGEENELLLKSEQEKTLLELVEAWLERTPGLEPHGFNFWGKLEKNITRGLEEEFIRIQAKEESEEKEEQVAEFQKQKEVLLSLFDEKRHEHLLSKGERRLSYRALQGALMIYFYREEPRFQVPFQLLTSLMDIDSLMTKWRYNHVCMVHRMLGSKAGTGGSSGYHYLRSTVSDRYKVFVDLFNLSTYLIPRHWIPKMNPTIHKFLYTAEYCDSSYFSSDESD
Assay: TDO cell-based assay, kynurenine production in A172 cells
Settings: A 172; final concentration of the compound 10 μM; rate relative to culture without compound
Structures can show the parent of a compound that is named as a salt.
Note: unit % is implicit; provide only the numeric part.

compound: Clc1ccc(CCN2CN=C(SCc3ccccc3CSC3=NCN(CCc4ccc(Cl)c(Cl)c4)CN3)NC2)cc1Cl [Compound 22]
remaining activity at 10 µM (%): -1

compound: NC(=O)SCc1ccccc1CS/C(N)=N/c1ccc(F)c(Cl)c1 [Compound 59, hydrobromide]
remaining activity at 10 µM (%): 4

compound: N=C(N)SCc1cc(Br)ccc1C(=O)NCc1ccc(F)c(Cl)c1 [Compound 116, hydrobromide]
remaining activity at 10 µM (%): 55

compound: N=C(N)SCc1ccccc1CC(=O)NCCC1CCCCC1 [Compound 69, hydrobromide]
remaining activity at 10 µM (%): 73

Let us examine a further case.
Measured remaining activity at 10 µM of N/C(=N\c1ccc(F)cc1)SCc1ccc(F)cc1CS/C(N)=N/c1ccc(F)cc1 [Compound 127, dihydrobromide] : 10

###

Target: IDO in A431 cells (Homo sapiens)
Construct: endogenous in cells; host or cells: A431 cells, IFN-γ stimulated
Experiment: IDO cell-based assay, kynurenine production in IFN-γ stimulated A431 cells
Settings: A-431, 24 h; final concentration of the compound 10 μM; rate relative to culture without compound
Counter-ions that a name gives are not always drawn.
Please respond with true when measured remaining activity at 10 µM is strictly beneath 10%, and with false in all other cases.

molecule: O=C1CC(=O)NC(SCc2ccccc2CSC2=NC(=O)CC(=O)N2)=N1
cat: false

In: Determine if COc1cccc(CCN2CN=C(SCc3cc(Cl)c(Cl)cc3CSC3=NCN(CCc4cccc(OC)c4)CN3)NC2)c1 shows remaining activity at 10 µM strictly lower than 10%.
Out: false

In: Determine if Cl.Cl.N=C(N)SCc1ccccc1CSC(=N)N [Compound 1, dihydrochloride] shows remaining activity at 10 µM strictly lower than 10%.
Out: false

In: Determine if N/C(=N\c1ccc(F)c(Cl)c1)SCc1cc(Br)ccc1C(=O)NCc1ccc(F)cc1 [Compound 88, hydrobromide] shows remaining activity at 10 µM strictly lower than 10%.
Out: false

In: Determine if N=C(N)SCc1cc(F)c(F)cc1CSC(=N)N [Compound 131, dihydrobromide] shows remaining activity at 10 µM strictly lower than 10%.
Out: true

###

Molecular target: rhTDO (recombinant human TDO) (Homo sapiens, UniProt P48775)
Sequence (P48775 whole entry): as the sequence (P48775 whole entry) above
Assay: Enzyme assay using rhTDO (rate of kynurenine production)
Assay type: biochemical
Conditions: 2 h; final concentration of the compound 10 μM; rate relative to reaction without compound; read-out: rhTDO-mediated kynurenine production
Where a name gives a salt, the structure may show the parent alone.
Here, each record is paired with measured remaining activity at 10 µM data.
Note: unit % is implicit; provide only the numeric part.

// worked examples, remaining activity at 10 µM included
compound: COc1ccc(CCN2CN=C(SCc3ccc(F)cc3CSC3=NCN(CCc4ccc(OC)cc4)CN3)NC2)cc1 [Compound 147]
unit annotation: %
remaining activity at 10 µM: 10
//
compound: Br.N#Cc1ccc(CNC(=O)c2cc(Br)ccc2CSC(=N)N)cc1 [Compound 103, hydrobromide]
unit annotation: %
remaining activity at 10 µM: 22
//
compound: Br.Br.N=C(N)SCc1ccc(F)cc1CSC(=N)N [Compound 2, dihydrobromide]
unit annotation: %
remaining activity at 10 µM: 6
//
compound: Clc1ccc(CN2CN=C(SCc3ccc(Br)cc3CSC3=NCN(Cc4ccc(Cl)c(Cl)c4)CN3)NC2)cc1Cl [Compound 54]
unit annotation: %
remaining activity at 10 µM: 14

Measured remaining activity at 10 µM of N=C(N)SCCc1ccccc1CSC(=N)N [Compound 51, dihydrobromide] : 13

Measured remaining activity at 10 µM of CNC(=O)c1ccccc1CSC(=N)N [Compound 92, hydrobromide] : 68

Measured remaining activity at 10 µM of COC(=O)c1ccccc1CSC(=N)N [Compound 55, hydrochloride] : 111

Measured remaining activity at 10 µM of Fc1ccc(CSC2=NCN(CC3CC3)CN2)c(CSC2=NCN(CC3CC3)CN2)c1 [Compound 120] : 8

###

Target: IDO in A431 cells (Homo sapiens, UniProt P14902)
Construct: endogenous in cells; host or cells: A431 cells, IFN-γ stimulated
Sequence (P14902 whole entry): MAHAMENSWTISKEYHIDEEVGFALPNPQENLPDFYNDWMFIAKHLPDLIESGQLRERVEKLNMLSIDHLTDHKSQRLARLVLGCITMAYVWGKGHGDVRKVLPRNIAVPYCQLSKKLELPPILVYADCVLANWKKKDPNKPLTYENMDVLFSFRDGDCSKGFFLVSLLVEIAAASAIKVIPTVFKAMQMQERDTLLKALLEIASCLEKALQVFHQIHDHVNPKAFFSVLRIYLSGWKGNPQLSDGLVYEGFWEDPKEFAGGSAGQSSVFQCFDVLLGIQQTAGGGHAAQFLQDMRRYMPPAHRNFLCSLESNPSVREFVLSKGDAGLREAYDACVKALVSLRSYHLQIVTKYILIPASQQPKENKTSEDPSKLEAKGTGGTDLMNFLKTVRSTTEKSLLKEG
Assay: IDO cell-based assay, kynurenine production in IFN-γ stimulated A431 cells
Details: A-431, 24 h; final concentration of the compound 10 μM; rate relative to culture without compound
Where a name gives a salt, the structure may show the parent alone.
property measured: remaining activity at 10 µM (%)
Note: unit % is implicit; provide only the numeric part.

compound: Clc1ccc(Cl)c(CN2CN=C(SCc3ccccc3CSC3=NCN(Cc4cc(Cl)ccc4Cl)CN3)NC2)c1
remaining activity at 10 µM [%]: 7
--
compound: CNC(=N)SCc1ccccc1CSC(=N)NC [Compound 11, dihydrochloride]
remaining activity at 10 µM [%]: 6

Let us examine a further case.
Measured remaining activity at 10 µM of c1csc(CCN2CN=C(SCc3ccccc3CSC3=NCN(CCc4cccs4)CN3)NC2)c1 : 9

###

Biological target: rhTDO (recombinant human TDO) (Homo sapiens)
Assay: Enzyme assay using rhTDO (rate of kynurenine production)
Type: biochemical
Conditions: 2 h; final concentration of the compound 10 μM; rate relative to reaction without compound; read-out: rhTDO-mediated kynurenine production
Structures can show the parent of a compound that is named as a salt.
property measured: remaining activity at 10 µM (%)
Note: unit % is implicit; provide only the numeric part.

// worked examples, remaining activity at 10 µM included
molecule: Clc1ccc(CN2CN=C(SCc3ccccc3CSC3=NCN(Cc4ccc(Cl)cc4)CN3)NC2)cc1
remaining activity at 10 µM / %: 45
--
molecule: Br.N#Cc1ccc(CNC(=O)c2ccc(Br)cc2CSC(=N)N)cc1 [Compound 76, hydrobromide]
remaining activity at 10 µM / %: 15

Let us examine a further case.
Measured remaining activity at 10 µM of N/C(=N\c1ccc(F)cc1)SCc1ccc(F)cc1CS/C(N)=N/c1ccc(F)cc1 [Compound 127, dihydrobromide] : 12

###

Biological target: IDO in A431 cells (Homo sapiens)
Construct: endogenous in cells; host or cells: A431 cells, IFN-γ stimulated
Assay: IDO cell-based assay, kynurenine production in IFN-γ stimulated A431 cells
Details: A-431, 24 h; final concentration of the compound 10 μM; rate relative to culture without compound
Counter-ions that a name gives are not always drawn.
Here, each record is paired with measured remaining activity at 10 µM data.
Note: unit % is implicit; provide only the numeric part.

// worked examples, remaining activity at 10 µM included
molecule: N/C(=N\c1ccc(Br)cc1)SCc1cc(Br)ccc1C(=O)NCc1ccc(Cl)cc1 [Compound 84, hydrobromide]
property measured: remaining activity at 10 µM
value measured: 56
--
molecule: N/C(=N\c1ccc(F)c(Cl)c1)SCc1cc(Br)ccc1C(=O)NCc1ccc(Cl)cc1 [Compound 83, hydrobromide]
property measured: remaining activity at 10 µM
value measured: 75
--
molecule: Fc1ccc(CN2CN=C(SCc3ccccc3CSC3=NCN(Cc4ccc(F)c(Cl)c4)CN3)NC2)cc1Cl
property measured: remaining activity at 10 µM
value measured: 18
--
molecule: N=C(N)SCCc1ccccc1CSC(=N)N [Compound 51, dihydrobromide]
property measured: remaining activity at 10 µM
value measured: 23
--
molecule: FC(F)(F)c1ccc(CSC2=NCN(CCc3ccc(Cl)c(Cl)c3)CN2)c(CSC2=NCN(CCc3ccc(Cl)c(Cl)c3)CN2)c1
property measured: remaining activity at 10 µM
value measured: 15

Let us examine a further case.
Tested system IDO in A431 cells (Homo sapiens); remaining activity at 10 µM recorded for N=C(N)SCc1cc(Br)ccc1C(=O)NCC1CC1 [Compound 93, hydrobromide] was 124

Source listed as patent US12209079B2.
